Measured IC50 by item
- Measured On: MAT2A (Homo sapiens, UniProt P31153)
- Construct: His6
- Sequence (P31153 whole entry): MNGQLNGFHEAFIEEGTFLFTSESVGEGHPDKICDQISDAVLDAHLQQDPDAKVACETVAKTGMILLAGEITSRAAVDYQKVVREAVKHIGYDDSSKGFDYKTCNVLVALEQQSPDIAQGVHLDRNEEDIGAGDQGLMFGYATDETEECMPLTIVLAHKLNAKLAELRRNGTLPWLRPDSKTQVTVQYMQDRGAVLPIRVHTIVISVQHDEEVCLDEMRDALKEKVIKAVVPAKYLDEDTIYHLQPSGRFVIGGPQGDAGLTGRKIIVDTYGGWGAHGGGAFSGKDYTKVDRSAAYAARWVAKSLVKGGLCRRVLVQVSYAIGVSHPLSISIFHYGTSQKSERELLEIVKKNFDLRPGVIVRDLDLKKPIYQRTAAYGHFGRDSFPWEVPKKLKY
- Protocol Details: MAT2A biochemical assay (colorimetric inorganic phosphate detection, PiColorLock)
- Study Conditions: recombinant His6-tagged MAT2A 1 μg/ml; 60 minutes preincubation at 25° C.; L-Met 80 μM, ATP 100 μM; 60 minutes reaction; read at 623 nm; read-out: MAT2A Inhibition Score

{"Molecule": "NCc1[nH]c2c(C3=CCCCC3)c(-c3ccccc3)nn2c(=O)c1-c1ccc2ncccc2c1 [Compound 233]", "IC50": "< 100 nM"}
{"Molecule": "Cc1[nH]c2c(N3CCCCC3)c(-c3ccccc3)nn2c(=O)c1-c1ccc(O)nc1 [Compound 309]", "IC50": "100 to 1000 nM"}
{"Molecule": "Cc1[nH]c2c(-c3ccccc3)c(-c3ccccc3)nn2c(=O)c1-c1ccc2nccnc2c1 [Compound 331]", "IC50": "100 to 1000 nM"}
{"Molecule": "COc1ccc(-c2c(Nc3ncc[nH]3)[nH]c3c(-c4ccccc4)c(-c4ccccc4)nn3c2=O)cc1 [Compound 142]", "IC50": "< 100 nM"}

###

Measured IC50 by item
- Measured On: MAT2A (Homo sapiens, UniProt P31153)
- Construct: His6
- Protocol Details: MAT2A biochemical assay (colorimetric inorganic phosphate detection, PiColorLock)
- Study Conditions: recombinant His6-tagged MAT2A 1 μg/ml; 60 minutes preincubation at 25° C.; L-Met 80 μM, ATP 100 μM; 60 minutes reaction; read at 623 nm; read-out: MAT2A Inhibition Score
- Excerpt: In the reaction catalyzed by MAT2A enzyme, L-Met and ATP were converted to SAM, inorganic phosphate, and inorganic diphosphate. […] The concentration of malachite green phosphomolybdate produced in the detection reaction is thus directly related to the quantity of product produced by the MAT2A enzyme. Multiple commercial kits exist for this method of phosphate detection and quantification, such as PiColorLock Gold (Innova Biosciences). […]

{"Structure As Smiles": "Cc1nc2ccc(-c3c(Nc4ccccn4)[nH]c4c(-c5ccccc5)c(-c5ccccc5)nn4c3=O)cc2s1", "IC50": "< 100 nM"}
{"Structure As Smiles": "Cc1[nH]c2c(-c3ccccc3)c(-c3ccccc3F)nn2c(=O)c1-c1ccc2ncccc2c1", "IC50": "< 100 nM"}
{"Structure As Smiles": "COc1cc(-c2nn3c(=O)c(-c4ccc5ncccc5c4)c(C)[nH]c3c2-c2ccccc2)ccn1", "IC50": "1000 to 10000 nM"}
{"Structure As Smiles": "COc1ccc(-c2c(Nc3cccnn3)[nH]c3c(C4=CCCCC4)c(-c4ccccc4)nn3c2=O)cc1", "IC50": "< 100 nM"}
{"Structure As Smiles": "COc1ccc(-c2c(Nc3ccc(O)cn3)[nH]c3c(-c4ccccc4)c(-c4ccccc4)nn3c2=O)cc1", "IC50": "< 100 nM"}
{"Structure As Smiles": "Cc1[nH]c2c(C3=CCCCC3)c(-c3ccccc3)nn2c(=O)c1-c1ccc(O)cc1", "IC50": "< 100 nM"}
{"Structure As Smiles": "COc1ccc(-c2c(CNC(=O)[C@@H](N)C(C)C)[nH]c3c(-c4ccccc4)c(-c4ccccc4)nn3c2=O)cc1", "IC50": "100 to 1000 nM"}
